Tested on: CAKI-1 renal
procedure-details: NCI-60 one-dose screen, 48 h (100 = growth as untreated, 0 = no growth, -100 = all killed)
test-settings: 10 µM
This is part of a sample that, as a whole, favours compounds with a hit. Of some 83,000 tested, about 20% had one in any assay.
measurement-type: growth (%)
Provide the reading as a plain figure in %.

**Q:** Item `CC(C)c1cc([N+](=O)[O-])cc([N+](=O)[O-])c1O` with CAKI-1 renal - growth?
**A:** 99

**Q:** Item `C/C(=C\c1ccc(Cl)c(Cl)c1)[N+](=O)[O-]` with CAKI-1 renal - growth?
**A:** 121

**Q:** Item `NNc1ccccc1` with CAKI-1 renal - growth?
**A:** 65.4

**Q:** Item `O=C(CBr)Nc1ccccc1` with CAKI-1 renal - growth?
**A:** 106
